Experiment: antimalarial activity against Dd2 strain (AID 2302);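 note: 0% = DMSO untreated growth and 100% = chloroquine plus artemisinin killed control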
Details: P. falciparum Dd2 in RBCs, LDH growth readout, 72 h; at 2 µM; hits give high values
Calls of active or inactive are those of the source.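 Rule for the calls: active = growth inhibition above 50% at the single 2 µM test dose, taken to imply half-maximal potency below 2 µM; inactive = the rest.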
Assignment: determine reported growth inhibition for the given compounds.

Returns the measured growth inhibition for the input compound. Input: CCN(CC)CCCNc1ncc2c(-c3ccc(NC(=O)Nc4cc(C(F)(F)F)ccc4F)cc3)nn(C)c2n1
74% (active)

What do you get for CN1CCN(c2ccnc3ccc(NC(=O)Cc4ccc(OCc5ccccc5)cc4)cc23)CC1 ?
89% (active)

What do you get for CCN(CCS(C)(=O)=O)Cc1ccc(-c2ccc3ncnc(Nc4ccc(OCc5cccc(F)c5)c(Cl)c4)c3c2)o1 ?
63% (active)

What do you get for O=C1C(c2ccccc2)=C(Nc2ccc(OC(F)(F)F)cc2)c2ccccc21 ?
96% (active)

What do you get for CC1(C)N=C(N)NC(NOCC=Cc2ccccc2)=N1 ?
2% (inactive)

What do you get for COc1ccc(C2(CNCC(O)c3cccc([N+](=O)[O-])c3)CCCC2)cc1OC (stereo not given) ?
85% (active)

What do you get for N#CCCN1CCN(Cc2cccc(-c3ccc(-c4nc5ccc(C(F)(F)F)cc5[nH]4)cc3)c2)CC1 ?
63% (active)

What do you get for O=S(=O)(Nc1cc2c(cc1OCCCN1CCCCC1)CCNCC2)c1ccc(-c2ccc(Cl)cc2)cc1 ?
19% (inactive)

What do you get for CC(C)C[C@H]1c2[nH]c3ccc(Cl)cc3c2CCN1C(=O)CCc1ccccc1 ?
81% (active)

What do you get for COc1ccc(CN=C(N)Nc2nc(-c3ccc(OCCCn4ccnc4)cc3)cs2)cc1 ?
67% (active)

What do you get for CCOc1ccc(-c2nonc2NC(=O)c2ccco2)cc1OCC ?
77% (active)

What do you get for COC(=O)CCCOc1cc(Cc2cnc(N)nc2N)cc(OC)c1OC ?
-4% (inactive)

What do you get for Cc1cccc2[nH]c(-c3ccc(-c4cccc(NC(=O)Nc5cccc(C#N)c5)c4)cc3)nc12 ?
86% (active)

What do you get for O=C(Nc1ccccc1)N(Cc1ccccc1-c1cccc(CNC2CCCC2)c1)C1CCN(Cc2ccccc2)CC1 ?
84% (active)

What do you get for N#CCCn1nc(-c2ccc(Cl)cc2)c2c(c1=O)CCCC2 ?
32% (inactive)

What do you get for Oc1ccc(Nc2nc(NCc3ccco3)c3ccccc3n2)cc1 ?
78% (active)

What do you get for Cc1cc(NCCCCCCCCNc2cc(C)nc3ccccc23)c2ccccc2n1 ?
-1% (inactive)

What do you get for Cc1cccc2[nH]c(-c3cccc(-c4cccc(NC(=O)c5ccoc5)c4)c3)nc12 ?
71% (active)

What do you get for CC1CCN(c2nc(C(=O)Nc3cccc4c3CCCC4)c(C(C)C)s2)CC1 ?
49% (inactive)

What do you get for COc1ccc2ccccc2c1C=NNc1cc(C)nc2cc(C(F)(F)F)ccc12 ?
4% (inactive)

----------
Molecular target: L-lactate dehydrogenase (Plasmodium falciparum (isolate CDC / Honduras))
Assay: PfLDH activity inhibition – cell lysate, 3D7 strain, counter-screen for P. falciparum growth inhibition project (AID 2304);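 note: 0% = vehicle and 100% = reference inhibitor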
Conditions: P. falciparum 3D7 crude extract, LDH APAD/NBT absorbance; at 2 µM; hits give high values
readout.label: inhibition (%)
Give the quantity in %, number only.

Returns the measured inhibition for the input compound. Input: N=c1n(Cc2ccccc2)c2ccccc2n1CC(O)c1ccc(Cl)c(Cl)c1 (centres undefined)
4

What do you get for O=C(c1cc(C(=O)Nc2ccccc2)c(=O)n(-c2ccccc2)c1)c1cc(Cl)ccc1O ?
-1

What do you get for CN1C(C)(C)CC(NC(=O)c2ccc(-c3cc4cc(Cl)c(Cl)cc4[nH]3)o2)CC1(C)C ?
-4

What do you get for Cc1ccccc1C1CCN(C2CCC(NC(=O)/C=C/c3ccc(OC(F)(F)F)cc3)CC2)CC1 (centres undefined) ?
-5

What do you get for COc1ccc(C2CC(=O)C3=C(C2)NC(C)=C(C(=O)OC(C)C)C3c2cccc(O)c2)cc1OC (centres undefined) ?
-4

What do you get for Cc1cccc(Oc2cccc3[nH]nc(N)c23)c1 ?
-2

What do you get for O=C(NCCCCN1CCC(c2ccc3c(c2OCC2COCO2)CCCC3)CC1)c1ccc(-c2ccc(C(F)(F)F)cc2)cc1 (centres undefined) ?
-2

What do you get for COc1cc(NC(=O)c2c(-c3c(F)cccc3Cl)noc2C)c(OC)cc1Cl ?
5

What do you get for Cc1cc(N)nc2ccc(-c3ccc(CN)cc3)cc12 ?
-3

What do you get for CCCCN(C)CC#Cc1ccc(-c2ccc3[nH]c(C)c(Br)c(=O)c3c2)cn1 ?
-3

What do you get for COc1ccc(C2CC(c3cccs3)=NN2C(=O)CNc2cccc(C#N)c2)cc1OC (centres undefined) ?
-4

What do you get for Cc1cc(N(C)C)nc(Nc2ccc(NC(=O)CCc3ccccc3)cc2)n1 ?
1

What do you get for CCOC(=O)N/N=C/[C@H](CCc1ccccc1)NC(=O)[C@H](CC(C)C)NC(=O)c1cc2cccc(OC)c2o1 ?
2

What do you get for O=C(N[C@@H](Cc1ccccc1)C(=O)NC1CCCCCC1)c1ccc(O)c(-c2ccc(Cl)c(Cl)c2)c1 ?
-9

What do you get for Cc1ccc(F)cc1S(=O)(=O)Nc1ccc(CCN2CCC(N3CCCCC3)CC2)cc1 ?
-3

What do you get for COCC(=O)N(Cc1ccccc1-c1cccc(CNCc2ccc3c(c2)OCO3)c1)C1CCN(Cc2ccccc2)CC1 ?
-1

What do you get for COc1ccccc1C1CCN(C2CCC(NC(=O)c3cc4cc(C(C)C)ccc4[nH]3)CC2)CC1 (centres undefined) ?
-4

What do you get for O=C(NC1CCC(N2CCN(c3cccc(C(F)(F)F)c3)CC2)CC1)c1cc2ccccc2[nH]1 (centres undefined) ?
0

What do you get for Cn1c(NC(=O)CCCCCNC(=O)c2ccc(O)c(-c3ccc(Cl)c(Cl)c3)c2)nc2ccccc21 ?
7
